B1: HESX1 (parent)
chain: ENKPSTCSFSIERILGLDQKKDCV

Variants of: B1
test_method_notes: protein stability index of a GFP-peptide fusion (GPS, HEK-293T) (PSI 1-6); higher = more stable;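 note: lentivirally expressed fusions sorted by FACS into six bins by GFP to DsRed ratio, PSI derived from sequencing read proportions per bin multiplied by bin number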
condition_parameters: c terminus: a fixed tail appended
result_type: protein stability index
In your answer, state the number alone without any accompanying words.

Look over these answered cases.
[[record]]
mutant = "E1M"
measured = 2.45

[[record]]
mutant = "V24F"
measured = 2.91

[[record]]
mutant = "N2S"
measured = 2.87

[[record]]
mutant = "S10K"
measured = 3.77

[[record]]
mutant = "T6V"
measured = 2.71


Answer with the recorded protein stability index of `F9D` only.
4.24

Answer with the recorded protein stability index of `G16C` only.
2.83

Answer with the recorded protein stability index of `C7M` only.
3.32
